# reported melting point; entries follow

*Q* Can you share its melting point? I mean this compound: CCCCCCCOc1cc(/C=C/C(=O)N2CCN(c3ccc(NC(=N)c4ccc[nH]4)cc3)CC2)cc(OCCCCCCC)c1O
*A* 100 to 145 °C

*Q* Try this compound too: CCCCCCOc1cc(/C=C/C(=O)Nc2ccccc2O)cc(OCCCCCC)c1O
*A* 137 to 140 °C

*Q* Try this compound too: CCC(CC)Oc1cc(/C=C/C(=O)N2CCN(c3ccc(NC(=N)c4cccs4)cc3)CC2)cc(OC(CC)CC)c1O
*A* 170 to 171 °C

*Q* Try this compound too: CCCCOc1cc(/C=C/C(=O)N2CCN(c3ccc(NC(=N)c4cccs4)cc3)CC2)cc(OCCCC)c1O
*A* 99 to 102 °C

Origin of values: patent US7078407B2
